Experimental target: human sEH enzyme (Homo sapiens)
Construct: His-tag (N, cleaved yes); made in house; host or cells: E. coli (pET100 vector)
Sequence (P34913 1-555): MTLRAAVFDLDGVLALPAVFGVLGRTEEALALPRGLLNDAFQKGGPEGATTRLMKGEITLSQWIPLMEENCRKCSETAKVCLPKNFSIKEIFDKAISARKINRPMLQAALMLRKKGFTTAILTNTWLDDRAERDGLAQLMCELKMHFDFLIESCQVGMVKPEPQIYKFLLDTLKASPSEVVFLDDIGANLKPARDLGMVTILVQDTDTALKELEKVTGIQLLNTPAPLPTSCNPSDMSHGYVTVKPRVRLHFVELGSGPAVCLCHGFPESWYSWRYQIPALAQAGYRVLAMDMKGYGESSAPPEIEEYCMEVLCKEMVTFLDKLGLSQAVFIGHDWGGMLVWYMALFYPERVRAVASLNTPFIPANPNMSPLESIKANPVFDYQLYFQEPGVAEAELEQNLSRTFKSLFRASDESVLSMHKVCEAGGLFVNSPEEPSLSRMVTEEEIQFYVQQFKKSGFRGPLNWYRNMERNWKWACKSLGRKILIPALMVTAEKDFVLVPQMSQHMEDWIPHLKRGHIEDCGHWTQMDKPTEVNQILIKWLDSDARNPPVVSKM
Assay procedure: sEH Human Enzyme Assay (fluorescence based enzyme in vitro assay)
Type: biochemical
Test conditions: recombinant full length human sEH about 1 nM, fluorescence substrate S7 10 uM, pH7.0, 25° C.; read-out: IC50 [nM] for human sEH enzyme inhibition
Assign labels as follows, please: y for IC50 below 4 nM; n for IC50 equal to or exceeding 4 nM.

Ask: Hello, I'm reviewing records and need to know if IC50 of `O=C(Nc1ccc(C(F)(F)F)cc1)N1CC2(c3ccccc3)CCC1CC2` is below 4 nM. Could you check?
Result: y

Ask: Hello, I'm reviewing records and need to know if IC50 of CC(c1ccccc1)c1noc(C2CC3CCC2N(C(=O)Nc2ccc(C(F)(F)F)cc2)C3)n1 (stereo not shown) is below 4 nM. Could you check?
Result: n

Ask: Hello, I'm reviewing records and need to know if IC50 of Cc1noc(C2CC3CCC2N(C(=O)Nc2ccc(C(F)(F)F)cc2)C3)n1 (stereo not shown) is below 4 nM. Could you check?
Result: y

----------
Experimental target: human sEH enzyme (Homo sapiens)
Construct: His-tag (N, cleaved yes); made in house; host or cells: E. coli (pET100 vector)
Sequence (P34913 1-555): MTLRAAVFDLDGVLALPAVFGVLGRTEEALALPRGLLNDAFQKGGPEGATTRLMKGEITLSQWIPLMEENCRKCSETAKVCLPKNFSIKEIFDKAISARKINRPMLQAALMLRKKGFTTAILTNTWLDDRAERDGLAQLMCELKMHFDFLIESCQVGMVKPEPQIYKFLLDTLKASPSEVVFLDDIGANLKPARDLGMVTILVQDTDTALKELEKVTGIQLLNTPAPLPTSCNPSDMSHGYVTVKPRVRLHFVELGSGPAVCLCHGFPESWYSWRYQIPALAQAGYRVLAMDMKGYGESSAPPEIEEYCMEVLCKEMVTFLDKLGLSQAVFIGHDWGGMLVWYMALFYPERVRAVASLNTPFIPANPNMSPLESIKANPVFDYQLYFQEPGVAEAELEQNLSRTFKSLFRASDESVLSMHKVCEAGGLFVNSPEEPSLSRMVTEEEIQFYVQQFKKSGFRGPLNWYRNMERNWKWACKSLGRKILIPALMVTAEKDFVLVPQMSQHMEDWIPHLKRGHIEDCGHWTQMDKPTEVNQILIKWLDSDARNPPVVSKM
Assay procedure: sEH Human Enzyme Assay (fluorescence based enzyme in vitro assay)
Assay type: biochemical
Test conditions: recombinant full length human sEH about 1 nM, fluorescence substrate S7 10 uM, pH7.0, 25° C.; read-out: IC50 [nM] for human sEH enzyme inhibition
Assign labels as follows, please: met for IC50 below 6 nM; not met for IC50 equal to or exceeding 6 nM.

Cc1noc(C2(C)CC3CCC2N(C(=O)NC2CC2c2ccccc2)C3)n1 (stereo not shown) [Example 16]; not met
Cc1noc(C2(C)CC3CCC2N(C(=O)Nc2ccc(C(F)(F)F)cc2)C3)n1 (stereo not shown) [Example 3]; met
O=C(Nc1ccc(C(F)(F)F)cc1)N1C2CCC1C(c1cccnc1)C2 (stereo not shown) [Example 12]; not met
Cc1noc(C2CC3CC2N(C(=O)Nc2ccc(C(F)(F)F)cc2)C3)n1 (stereo not shown) [Example 1]; not met
O=C(Nc1ccc(C(F)(F)F)cc1)N1C2CCC1C(c1cccnc1)C2 (stereo not shown) [Example 11]; not met

Pending compound:
Ask: Hello, I'm reviewing records and need to know if IC50 of CCc1noc(C2CC3CC2N(C(=O)NC2CC2c2ccccc2)C3)n1 (stereo not shown) [Example 17] is below 6 nM. Could you check?
Result: not met

----------
Experimental target: human sEH enzyme (Homo sapiens, UniProt P34913)
Construct: His-tag (N, cleaved yes); made in house; host or cells: E. coli (pET100 vector)
Assay procedure: sEH Human Enzyme Assay (fluorescence based enzyme in vitro assay)
Type: biochemical
Test conditions: recombinant full length human sEH about 1 nM, fluorescence substrate S7 10 uM, pH7.0, 25° C.; read-out: IC50 [nM] for human sEH enzyme inhibition
Assign labels as follows, please: Criterion met for IC50 below 4 nM; Criterion not met for IC50 equal to or exceeding 4 nM.

O=C(NC1CC1c1ccccc1)N1CC2CCC1C(c1nc(C(c3ccccc3)c3ccccc3)no1)C2 (stereo not shown); Criterion not met
CN(C)c1noc(C2CC3CCC2N(C(=O)NC2CC2c2ccccc2)C3)n1 (stereo not shown); Criterion not met
O=C(Nc1ccc(Cl)cc1)N1CC2(c3ccccc3)CCC1C2 (stereo not shown); Criterion met
Cn1cc(-c2noc(C3(C)CC4CCC3N(C(=O)NC3CC3c3ccccc3)C4)n2)c2ccccc21 (stereo not shown); Criterion not met
CCOc1noc(C2CC3CCC2N(C(=O)NC2CC2c2ccccc2)C3)n1 (stereo not shown); Criterion not met
CCc1noc(C2CC3CCC(C2)N3C(=O)Nc2ccc(C(F)(F)F)cc2)n1 (stereo not shown); Criterion met
CCOc1noc(C2CC3CCC2N(C(=O)Nc2ccc(C(F)(F)F)cc2)C3)n1 (stereo not shown); Criterion met
CN(C)c1noc(C2CC3CCC2N(C(=O)Nc2ccc(C(F)(F)F)cc2)C3)n1 (stereo not shown); Criterion met

Pending compound:
Ask: Hello, I'm reviewing records and need to know if IC50 of O=C(NC1CC1c1ccccc1)N1CC2CCC1C(c1nc(C3CC3)no1)C2 (stereo not shown) is below 4 nM. Could you check?
Result: Criterion not met

Recorded values, source patent US20110003849A1.
